Assign Emax to each entry below.
Biological target: Cannabinoid receptor 2 (Homo sapiens)
Test: Agonist activity at human CB2 receptor expressed in CHO-K1 cells assessed as inhibition of froskolin-stimulated cAMP accumulation at 10 uM incubated for 90 mins by HitHunter chemiluminescence based assay relative to CP55,940
Type: functional, cell-based
Supply the numeric figure in %, leaving out any unit text.

[Q] Using the record for Cc1c(Br)cn(CCCc2cn(CCCn3c(C)c(Br)cc(C(=O)NC4CCCCCC4)c3=O)nn2)c(=O)c1NC(=O)C1CCCCCC1 , report its Emax.
[A] 21

[Q] Using the record for Cc1c(Br)cn(Cc2ccc(F)cc2)c(=O)c1NC(=O)C1CCCCCC1 , report its Emax.
[A] 2.5

[Q] Using the record for Cc1c(Br)cn(Cc2cn(CCCCCn3c(C)c(Br)cc(C(=O)NC4CCCCCC4)c3=O)nn2)c(=O)c1NC(=O)C1CCCCCC1 , report its Emax.
[A] 22

[Q] Using the record for Cc1nc(OCCCCCn2cc(CCCn3cc(Br)c(C)c(NC(=O)C4CCCCCC4)c3=O)nn2)c(C(=O)NC2CCCCCC2)cc1Br , report its Emax.
[A] 38

[Q] Using the record for Cc1c(Br)cn(Cc2cn(CCCn3c(C)c(Br)cc(C(=O)NC4CCCCCC4)c3=O)nn2)c(=O)c1NC(=O)C1CCCCCC1 , report its Emax.
[A] 21

----------
Assign pKi to each entry below.
When answering, recall that pKi equals minus log10 of the concentration in mol/L, and write that number alone.

[Q] Identify the measured pKi of Cc1c(Br)cn(Cc2ccc(F)cc2)c(=O)c1NC(=O)C1CCCCCC1 for Cannabinoid receptor 2 (Homo sapiens, UniProt P34972).
[A] 7.72

[Q] Identify the measured pKi of Cc1nc(OCCCCCn2cc(CCCn3cc(Br)c(C)c(NC(=O)C4CCCCCC4)c3=O)nn2)c(C(=O)NC2CCCCCC2)cc1Br for Cannabinoid receptor 2 (Homo sapiens, UniProt P34972).
[A] 8.72

[Q] Identify the measured pKi of Cc1c(Br)cc(C(=O)NC2CCCCCC2)c(=O)n1Cc1ccc(F)cc1 for Cannabinoid receptor 2 (Homo sapiens, UniProt P34972).
[A] 8.15

[Q] Identify the measured pKi of Cc1c(Br)cn(CCCc2cn(CCCCCn3c(C)c(Br)cc(C(=O)NC4CCCCCC4)c3=O)nn2)c(=O)c1NC(=O)C1CCCCCC1 for Cannabinoid receptor 2 (Homo sapiens, UniProt P34972).
[A] 8.85

----------
Target: Cannabinoid receptor 1 (Homo sapiens, UniProt P21554)
Sequence (P21554 whole entry): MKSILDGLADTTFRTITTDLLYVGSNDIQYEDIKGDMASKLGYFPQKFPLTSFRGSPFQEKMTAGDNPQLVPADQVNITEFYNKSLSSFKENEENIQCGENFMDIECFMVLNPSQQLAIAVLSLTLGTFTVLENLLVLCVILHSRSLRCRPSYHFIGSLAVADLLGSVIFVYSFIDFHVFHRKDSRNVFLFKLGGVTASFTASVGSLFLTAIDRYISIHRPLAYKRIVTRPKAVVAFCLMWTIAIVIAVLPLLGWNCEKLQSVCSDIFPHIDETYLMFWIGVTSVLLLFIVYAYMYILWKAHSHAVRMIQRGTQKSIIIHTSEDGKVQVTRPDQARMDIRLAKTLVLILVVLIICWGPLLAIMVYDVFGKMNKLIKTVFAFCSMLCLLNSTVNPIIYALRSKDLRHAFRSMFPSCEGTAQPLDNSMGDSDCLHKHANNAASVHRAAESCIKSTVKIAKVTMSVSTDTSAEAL
pKi: −log10 of the molar value.
Assign pKi to each entry below.

[Q] Using the record for Cc1c(Br)cc(C(=O)NC2CCCCCC2)c(=O)n1Cc1ccc(F)cc1 , report its pKi.
[A] 9.10

[Q] Using the record for Cc1c(Br)cn(Cc2ccc(F)cc2)c(=O)c1NC(=O)C1CCCCCC1 , report its pKi.
[A] < 5.00

[Q] Using the record for Cc1nc(OCCCCCn2cc(CCCn3cc(Br)c(C)c(NC(=O)C4CCCCCC4)c3=O)nn2)c(C(=O)NC2CCCCCC2)cc1Br , report its pKi.
[A] < 5.00

[Q] Using the record for Cc1c(Br)cn(CCCc2cn(CCCCCn3c(C)c(Br)cc(C(=O)NC4CCCCCC4)c3=O)nn2)c(=O)c1NC(=O)C1CCCCCC1 , report its pKi.
[A] < 5.00

----------
Assign Emax to each entry below.
Biological target: UniProtKB P34972
Experiment: Agonist activity at human CB2 receptor expressed in CHO-K1 cells assessed as enhancement of beta arrestin-2 recruitment at 10 uM incubated for 90 mins by HitHunter chemiluminescence based assay relative to CP55,940
Assay type: functional, cell-based
Details: filed as agonist
Supply the numeric figure in %, leaving out any unit text.

[Q] Using the record for Cc1c(Br)cn(Cc2cn(CCCn3c(C)c(Br)cc(C(=O)NC4CCCCCC4)c3=O)nn2)c(=O)c1NC(=O)C1CCCCCC1 , report its Emax.
[A] 53

[Q] Using the record for Cc1c(Br)cn(CCCc2cn(CCCn3c(C)c(Br)cc(C(=O)NC4CCCCCC4)c3=O)nn2)c(=O)c1NC(=O)C1CCCCCC1 , report its Emax.
[A] 46

[Q] Using the record for Cc1c(Br)cc(C(=O)NC2CCCCCC2)c(=O)n1Cc1ccc(F)cc1 , report its Emax.
[A] 45

[Q] Using the record for Cc1nc(OCCCCCn2cc(CCCn3cc(Br)c(C)c(NC(=O)C4CCCCCC4)c3=O)nn2)c(C(=O)NC2CCCCCC2)cc1Br , report its Emax.
[A] 43

[Q] Using the record for Cc1c(Br)cn(Cc2cn(CCCCCn3c(C)c(Br)cc(C(=O)NC4CCCCCC4)c3=O)nn2)c(=O)c1NC(=O)C1CCCCCC1 , report its Emax.
[A] 41

----------
Biological target: Cannabinoid receptor 2 (Homo sapiens, UniProt P34972)
Sequence (P34972 whole entry): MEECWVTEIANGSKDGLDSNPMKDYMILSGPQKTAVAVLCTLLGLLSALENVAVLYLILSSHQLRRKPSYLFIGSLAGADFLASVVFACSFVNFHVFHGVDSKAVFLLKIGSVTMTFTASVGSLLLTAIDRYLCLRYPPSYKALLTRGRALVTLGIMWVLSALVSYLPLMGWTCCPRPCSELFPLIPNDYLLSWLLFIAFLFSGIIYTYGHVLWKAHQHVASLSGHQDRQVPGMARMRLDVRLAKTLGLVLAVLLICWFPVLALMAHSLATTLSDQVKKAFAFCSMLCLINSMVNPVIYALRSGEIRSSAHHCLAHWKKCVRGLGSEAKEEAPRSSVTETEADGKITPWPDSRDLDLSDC
Test: Agonist activity at human CB2 receptor expressed in CHO-K1 cells assessed as enhancement of beta arrestin-2 recruitment incubated for 90 mins by […] chemiluminescence based assay
Format: functional, cell-based
pEC50: −log10 of the molar value.
Assay Endpoint: pEC50

[Q] Using the record for Cc1nc(OCCCCCn2cc(CCCn3cc(Br)c(C)c(NC(=O)C4CCCCCC4)c3=O)nn2)c(C(=O)NC2CCCCCC2)cc1Br , report its pEC50.
[A] < 5.00

[Q] Using the record for Cc1c(Br)cn(CCCc2cn(CCCn3c(C)c(Br)cc(C(=O)NC4CCCCCC4)c3=O)nn2)c(=O)c1NC(=O)C1CCCCCC1 , report its pEC50.
[A] < 5.00

[Q] Using the record for Cc1c(Br)cn(Cc2ccc(F)cc2)c(=O)c1NC(=O)C1CCCCCC1 , report its pEC50.
[A] < 5.00

[Q] Using the record for Cc1c(Br)cn(CCCc2cn(CCCCCn3c(C)c(Br)cc(C(=O)NC4CCCCCC4)c3=O)nn2)c(=O)c1NC(=O)C1CCCCCC1 , report its pEC50.
[A] < 5.00

[Q] Using the record for Cc1c(Br)cn(Cc2cn(CCCn3c(C)c(Br)cc(C(=O)NC4CCCCCC4)c3=O)nn2)c(=O)c1NC(=O)C1CCCCCC1 , report its pEC50.
[A] 6.25

[Q] Using the record for Cc1c(Br)cn(Cc2cn(CCCCCn3c(C)c(Br)cc(C(=O)NC4CCCCCC4)c3=O)nn2)c(=O)c1NC(=O)C1CCCCCC1 , report its pEC50.
[A] < 5.00

[Q] Using the record for Cc1c(Br)cc(C(=O)NC2CCCCCC2)c(=O)n1Cc1ccc(F)cc1 , report its pEC50.
[A] 7.20

----------
Target: UniProt:P34972
Test: Agonist activity at human CB2 receptor expressed in CHO-K1 cells assessed as inhibition of froskolin-stimulated cAMP accumulation incubated for 90 mins by HitHunter chemiluminescence based assay
Format: functional, cell-based
Assay Endpoint: EC50 (nM)
Supply the numeric figure in nM, leaving out any unit text.

[Q] Identify the measured EC50 of Cc1c(Br)cn(CCCc2cn(CCCCCn3c(C)c(Br)cc(C(=O)NC4CCCCCC4)c3=O)nn2)c(=O)c1NC(=O)C1CCCCCC1 for UniProt:P34972.
[A] 73

[Q] Identify the measured EC50 of Cc1nc(OCCCCCn2cc(CCCn3cc(Br)c(C)c(NC(=O)C4CCCCCC4)c3=O)nn2)c(C(=O)NC2CCCCCC2)cc1Br for UniProt:P34972.
[A] 8

[Q] Identify the measured EC50 of Cc1c(Br)cc(C(=O)NC2CCCCCC2)c(=O)n1Cc1ccc(F)cc1 for UniProt:P34972.
[A] 20

----------
Target: UniProtKB P34972
Assay: Agonist activity at human CB2 receptor expressed in CHO-K1 cells assessed as inhibition of froskolin-stimulated cAMP accumulation incubated for 90 mins in presence of SR144528 by HitHunter chemiluminescence based assay
Type: functional, cell-based
Assay Endpoint: pEC50
When answering, recall that pEC50 equals minus log10 of the concentration in mol/L, and write that number alone.

[Q] Using the record for Cc1c(Br)cn(CCCc2cn(CCCCCn3c(C)c(Br)cc(C(=O)NC4CCCCCC4)c3=O)nn2)c(=O)c1NC(=O)C1CCCCCC1 , report its pEC50.
[A] 7.21

----------
Molecular target: Cannabinoid receptor 2 (Homo sapiens, UniProt P34972)
Assay: Agonist activity at human CB2 receptor expressed in CHO-K1 cells assessed as inhibition of froskolin-stimulated cAMP accumulation incubated for 90 mins in presence of EC-21a by HitHunter chemiluminescence based assay
Assay type: functional, cell-based
Assay Endpoint: pEC50
When answering, recall that pEC50 equals minus log10 of the concentration in mol/L, and write that number alone.

[Q] Using the record for Cc1c(Br)cn(CCCc2cn(CCCCCn3c(C)c(Br)cc(C(=O)NC4CCCCCC4)c3=O)nn2)c(=O)c1NC(=O)C1CCCCCC1 , report its pEC50.
[A] 8.66
